Biological target: UniProtKB P28845
Sequence (P28845 whole entry): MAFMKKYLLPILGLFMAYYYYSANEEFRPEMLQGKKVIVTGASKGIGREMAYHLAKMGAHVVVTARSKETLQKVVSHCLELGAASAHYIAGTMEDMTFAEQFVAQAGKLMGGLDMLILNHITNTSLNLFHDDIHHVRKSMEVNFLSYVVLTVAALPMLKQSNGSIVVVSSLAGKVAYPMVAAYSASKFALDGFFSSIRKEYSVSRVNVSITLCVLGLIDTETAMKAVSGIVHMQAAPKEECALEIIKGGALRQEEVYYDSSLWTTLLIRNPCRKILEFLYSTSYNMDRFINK
Experiment: biochemical
Conditions: read-out: Average % control inhibition at 100 nM
experimental.endpoint: inhibition at 0.1 µM (%)
# unit: % | format: bare number

Examples from the recorded data:
Cc1cc(-c2ccn(C3CC3)c(=O)c2)cc(C)c1CN1CCC(CC(C)(C)O)(c2ccccc2)OC1=O (centres unmarked) [Example 98] : 67
C[C@@H](c1ccc(-c2ccc(=O)n(CC3CC3)c2)cc1)N1CC[C@](CC(C)(C)O)(c2ccccc2)OC1=O [Example 76] : 17
C[C@@H](c1ccc(-c2cc(=O)n(C)cc2F)cc1)N1CC[C@](CC(C)(C)O)(c2ccccc2)OC1=O [Example 79] : 15

# lookup: inhibition at 0.1 µM of C[C@@H](c1ccc(-c2ccn(CC(C)(C)CO)c(=O)c2)cc1)N1CC[C@](CC(C)(C)O)(c2ccccc2)OC1=O [Example 90]
4

Similarly, C[C@@H](c1ccc(-c2ccn(CC(C)(C)O)c(=O)c2)cc1)N1CC[C@](CC(C)(C)O)(c2ccccc2)OC1=O [Example 80] ?
37
